Recorded values, source paper PMC9482650.

# ASSAY SYSTEM: Inadl_5, Q8NI35
# Sequence (Q8NI35 673-780): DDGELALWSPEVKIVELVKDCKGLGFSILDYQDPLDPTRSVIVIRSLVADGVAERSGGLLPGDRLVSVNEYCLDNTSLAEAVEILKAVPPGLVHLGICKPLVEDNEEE
# ASSAY EXPLANATION: holdup assay
# Set-up: key: below the threshold = too weak to quantify, mostly under pKd 3.1 to 4
# RUN CONDITIONS: plain residues with an end cap or a label only (N-terminal biotin on a linker: ahx)
EXPERIMENTAL READOUT: pKd

KEYDDELTFF [USH1C, Q9Y6N9] | below the threshold
KDECVIATEV [DLL1, O00548] | below the threshold
AKPQPVDSWV [ARVCF, O00192] | below the threshold
ADENEQVSAV [RAPGEF6, Q8TEU7] | below the threshold
HSATSVHTSV [MTMR1, Q13613] | below the threshold
SKKNELFSNL [NHERF1, O14745] | below the threshold
VNENQKEYFF [CNTNAP4, Q9C0A0] | 3.61
SAPATLSSRA [PDLIM2, Q96JY6] | below the threshold
YNSFLSVTTV [PDZRN3, Q9UPQ7] | below the threshold
PKMKLNETSF [SHKBP1, Q8TBC3] | below the threshold
